# Target Desc: kappa opiate receptor (Cavia porcellus, UniProt P41144)
# Construct: guinea pig cortices and cerebella were homogenized in 40 mL of Buffer A; from tissue; host or cells: guinea pig cortices and cerebella, crude membrane suspension
# Sequence (P41144 whole entry): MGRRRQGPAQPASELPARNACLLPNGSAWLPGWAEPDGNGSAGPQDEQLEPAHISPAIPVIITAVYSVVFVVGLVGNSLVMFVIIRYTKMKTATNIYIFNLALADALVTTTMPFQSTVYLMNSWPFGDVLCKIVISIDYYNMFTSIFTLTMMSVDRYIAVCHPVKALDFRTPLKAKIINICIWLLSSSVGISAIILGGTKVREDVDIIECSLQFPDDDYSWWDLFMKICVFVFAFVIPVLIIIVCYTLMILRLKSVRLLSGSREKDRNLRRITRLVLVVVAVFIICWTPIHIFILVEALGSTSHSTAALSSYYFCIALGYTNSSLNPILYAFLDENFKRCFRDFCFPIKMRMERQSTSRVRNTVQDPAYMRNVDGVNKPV
# Test Method Notes: Inhibition of tritiated U69,593 binding to the kappa opiate receptor in guinea pig brain homogenates
# Stated Conditions: inhibition of [3H]U69,593 binding; 3 nm tritiated U69,593, guinea pig brain membranes
Kind request: treat 20% as inclusive, so % Inhibition at 20% or higher is MET, anything lower is NOT MET.

Input: Record Cc1nc(CCCNC(=N)N)c2n1C(C(C)C)C(=O)N2 (stereo not drawn) ; criterion: % Inhibition no lower than 20%. Met?
Output: MET

Input: Record CCCc1nc(C)n2c1NC(=O)C2C(C)C (stereo not drawn) [Pool 45] ; criterion: % Inhibition no lower than 20%. Met?
Output: NOT MET

Input: Record Cc1nc(Cc2ccccc2)c2n1C(C(C)C)C(=O)N2 (stereo not drawn) [Pool 47] ; criterion: % Inhibition no lower than 20%. Met?
Output: NOT MET

Input: Record Cc1nc(CC2CCCCC2)c2n1C(C(C)C)C(=O)N2 (racemic) [Pool 62] ; criterion: % Inhibition no lower than 20%. Met?
Output: NOT MET

Input: Record CCC(C)c1nc(C)n2c1NC(=O)C2C(C)C (stereo not drawn) [Pool 54] ; criterion: % Inhibition no lower than 20%. Met?
Output: NOT MET

* * *

# Target Desc: kappa opiate receptor (Cavia porcellus)
# Construct: guinea pig cortices and cerebella were homogenized in 40 mL of Buffer A; from tissue; host or cells: guinea pig cortices and cerebella, crude membrane suspension
# Test Method Notes: Inhibition of tritiated U69,593 binding to the kappa opiate receptor in guinea pig brain homogenates
# Stated Conditions: mean minus non-specific binding; 3 nm tritiated U69,593, guinea pig brain membranes
Reported Endpoint: Minus NSB
No unit in the answer, only the number.

Input: Bench note: what Minus NSB did Cc1ccc(Cc2nc(C(C)C)c3n2C(C(C)C)C(=O)N3)cc1 (racemic) show?
Output: 500.25

Input: Bench note: what Minus NSB did CC(C)c1nc(CCCC2CCCCC2)n2c1NC(=O)C2C(C)C (centres unmarked) show?
Output: 517.00

Input: Bench note: what Minus NSB did Cc1nc(Cc2ccccc2)c2n1C(C(C)C)C(=O)N2 (centres unmarked) [Pool 47] show?
Output: 1082.30

Input: Bench note: what Minus NSB did Cc1nc(C(C)C)c2n1C(C(C)C)C(=O)N2 (centres unmarked) [Pool 142] show?
Output: 821.80

Input: Bench note: what Minus NSB did Cc1nc(Cc2ccc(O)cc2)c2n1C(C(C)C)C(=O)N2 (centres unmarked) [Pool 48] show?
Output: 877.00

Input: Bench note: what Minus NSB did CCCc1nc(C)n2c1NC(=O)C2C(C)C (racemic) [Pool 61] show?
Output: 526.75

Input: Bench note: what Minus NSB did Cc1nc(CC2CCCCC2)c2n1C(C(C)C)C(=O)N2 (racemic) [Pool 62] show?
Output: 869.30

Input: Bench note: what Minus NSB did CCC(c1ccccc1)c1nc(C(C)C)c2n1C(C(C)C)C(=O)N2 (mixture of isomers) show?
Output: 1106.30

* * *

# Target Desc: mu opiate receptor (Rattus norvegicus)
# Construct: from tissue; host or cells: rat brain membranes/homogenate
# Sequence (P33535 whole entry): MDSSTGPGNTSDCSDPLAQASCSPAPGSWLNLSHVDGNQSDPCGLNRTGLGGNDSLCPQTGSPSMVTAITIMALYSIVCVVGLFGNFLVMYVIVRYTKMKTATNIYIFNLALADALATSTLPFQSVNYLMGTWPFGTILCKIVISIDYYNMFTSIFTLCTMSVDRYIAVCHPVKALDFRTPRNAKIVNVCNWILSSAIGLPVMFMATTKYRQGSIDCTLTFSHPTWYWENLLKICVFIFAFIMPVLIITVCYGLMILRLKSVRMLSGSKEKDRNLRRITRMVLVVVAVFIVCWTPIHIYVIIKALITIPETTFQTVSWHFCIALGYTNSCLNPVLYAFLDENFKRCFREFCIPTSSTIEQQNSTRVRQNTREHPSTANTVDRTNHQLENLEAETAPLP
# Test Method Notes: Inhibition of [3H]DAMGO binding to the mu opiate receptor in rat brain homogenates
# Stated Conditions: [3H]DAMGO bound; 0.08 mg of compound per milliliter, 7 nM 3H-labeled DAMGO, rat brain membranes
Reported Endpoint: % Bound
A complete answer gives the number and then names the unit.

Input: Bench note: what % Bound did CC(C)c1nc(Cc2ccc(-c3ccccc3)cc2)n2c1NC(=O)C2C(C)C (racemic) show?
Output: 57%

Input: Bench note: what % Bound did Cc1nc(C)n2c1NC(=O)C2C(C)C (stereo not drawn) [Pool 35] show?
Output: 47%

Input: Bench note: what % Bound did CCCc1nc(C(C)C)c2n1C(C(C)C)C(=O)N2 (racemic) show?
Output: 54%

Input: Bench note: what % Bound did CC(C)c1nc(CC(C)c2ccccc2)n2c1NC(=O)C2C(C)C (mixture of isomers) show?
Output: 62%

Input: Bench note: what % Bound did COc1cccc(Cc2nc(C(C)C)c3n2C(C(C)C)C(=O)N3)c1 (racemic) show?
Output: 57%

Input: Bench note: what % Bound did Cc1nc(C(C)C)c2n1C(Cc1ccccc1)C(=O)N2 (stereo not drawn) show?
Output: 65%

Input: Bench note: what % Bound did Cc1nc(CCCCN)c2n1C(C(C)C)C(=O)N2 (stereo not drawn) show?
Output: 58%

Input: Bench note: what % Bound did CCC(C)Cc1nc(C(C)C)c2n1C(C(C)C)C(=O)N2 (stereo not drawn) show?
Output: 64%

Input: Bench note: what % Bound did CC(C)c1nc(CCC2CCCCC2)n2c1NC(=O)C2C(C)C (stereo not drawn) show?
Output: 61%

Input: Bench note: what % Bound did Cc1nc(C(C)C)c2n1C(C(C)C)C(=O)N2 (stereo not drawn) [Pool 142] show?
Output: 67%

Input: Bench note: what % Bound did CCCC1C(=O)Nc2c(C(C)C)nc(C)n21 (stereo not drawn) [Pool 28] show?
Output: 66%

Input: Bench note: what % Bound did CC(C)c1nc(Cc2cccc(C(F)(F)F)c2)n2c1NC(=O)C2C(C)C (racemic) show?
Output: 69%

* * *

Can you tell me % Bound for the items I'm about to list?
# Target Desc: kappa opiate receptor (Cavia porcellus, UniProt P41144)
# Construct: guinea pig cortices and cerebella were homogenized in 40 mL of Buffer A; from tissue; host or cells: guinea pig cortices and cerebella, crude membrane suspension
# Test Method Notes: Inhibition of tritiated U69,593 binding to the kappa opiate receptor in guinea pig brain homogenates
# Stated Conditions: [3H]U69,593 bound; 3 nm tritiated U69,593, guinea pig brain membranes
Express your answer in %, writing the number without its unit.

Input: Kindly state the measured % Bound obtained for CCCc1nc(C(C)C)c2n1C(C(C)C)C(=O)N2 (racemic) with kappa opiate receptor (Cavia porcellus, UniProt P41144).
Output: 60.468

Input: Kindly state the measured % Bound obtained for Cc1nc(CCCNC(=N)N)c2n1C(C(C)C)C(=O)N2 (centres unmarked) with kappa opiate receptor (Cavia porcellus, UniProt P41144).
Output: 48.200

Input: Kindly state the measured % Bound obtained for COc1ccc(Cc2nc(C(C)C)c3n2C(C(C)C)C(=O)N3)cc1OC (racemic) with kappa opiate receptor (Cavia porcellus, UniProt P41144).
Output: 81.337

Input: Kindly state the measured % Bound obtained for Cc1nc(C(C)C)c2n1C(C(C)C)C(=O)N2 (centres unmarked) [Pool 142] with kappa opiate receptor (Cavia porcellus, UniProt P41144).
Output: 79.324

Input: Kindly state the measured % Bound obtained for CCCCC(CC)c1nc(C(C)C)c2n1C(C(C)C)C(=O)N2 (mixture of isomers) with kappa opiate receptor (Cavia porcellus, UniProt P41144).
Output: 57.563

Input: Kindly state the measured % Bound obtained for CCCCCCc1nc(C(C)C)c2n1C(C(C)C)C(=O)N2 (racemic) with kappa opiate receptor (Cavia porcellus, UniProt P41144).
Output: 51.805

Input: Kindly state the measured % Bound obtained for CCCC1C(=O)Nc2c(C(C)C)nc(C)n21 (centres unmarked) [Pool 12] with kappa opiate receptor (Cavia porcellus, UniProt P41144).
Output: 74.706

Input: Kindly state the measured % Bound obtained for CCOc1ccc(Cc2nc(C(C)C)c3n2C(C(C)C)C(=O)N3)cc1 (racemic) with kappa opiate receptor (Cavia porcellus, UniProt P41144).
Output: 90.338

Input: Kindly state the measured % Bound obtained for CC(C)c1nc(C(C2CCCCC2)C2CCCCC2)n2c1NC(=O)C2C(C)C (centres unmarked) with kappa opiate receptor (Cavia porcellus, UniProt P41144).
Output: 58.779

Input: Kindly state the measured % Bound obtained for CC(C)c1nc(CC23CC4CC(CC(C4)C2)C3)n2c1NC(=O)C2C(C)C (centres unmarked) with kappa opiate receptor (Cavia porcellus, UniProt P41144).
Output: 78.803

Input: Kindly state the measured % Bound obtained for Cc1nc(C(C)C)c2n1C(C(C)C)C(=O)N2 (centres unmarked) [Pool 52] with kappa opiate receptor (Cavia porcellus, UniProt P41144).
Output: 74.744

Input: Kindly state the measured % Bound obtained for Cc1cccc(Cc2nc(C(C)C)c3n2C(C(C)C)C(=O)N3)c1 (racemic) with kappa opiate receptor (Cavia porcellus, UniProt P41144).
Output: 107.389

Input: Kindly state the measured % Bound obtained for CCCCc1nc(C)n2c1NC(=O)C2C(C)C (racemic) [Pool 60] with kappa opiate receptor (Cavia porcellus, UniProt P41144).
Output: 81.892

Input: Kindly state the measured % Bound obtained for Cc1nc(C)n2c1NC(=O)C2C(C)C (centres unmarked) [Pool 51] with kappa opiate receptor (Cavia porcellus, UniProt P41144).
Output: 71.313

Input: Kindly state the measured % Bound obtained for CC(C)c1nc(CC(C)c2ccccc2)n2c1NC(=O)C2C(C)C (mixture of isomers) with kappa opiate receptor (Cavia porcellus, UniProt P41144).
Output: 67.157

Input: Kindly state the measured % Bound obtained for Cc1nc(C(C)C)c2n1C(C(C)C)C(=O)N2 (centres unmarked) [Pool 19] with kappa opiate receptor (Cavia porcellus, UniProt P41144).
Output: 84.580

Input: Kindly state the measured % Bound obtained for Cc1nc(C(C)C)c2n1C(CC(C)C)C(=O)N2 (centres unmarked) [Pool 20] with kappa opiate receptor (Cavia porcellus, UniProt P41144).
Output: 68.996

Input: Kindly state the measured % Bound obtained for CC(C)c1nc(Cc2cccc(Br)c2)n2c1NC(=O)C2C(C)C (racemic) with kappa opiate receptor (Cavia porcellus, UniProt P41144).
Output: 65.748

Input: Kindly state the measured % Bound obtained for CC(C)c1nc(Cc2cccc(F)c2)n2c1NC(=O)C2C(C)C (racemic) with kappa opiate receptor (Cavia porcellus, UniProt P41144).
Output: 61.245

Input: Kindly state the measured % Bound obtained for CCC(CC)c1nc(C(C)C)c2n1C(C(C)C)C(=O)N2 (centres unmarked) with kappa opiate receptor (Cavia porcellus, UniProt P41144).
Output: 54.638

Input: Kindly state the measured % Bound obtained for Cc1ncc2n1C(C(C)C)C(=O)N2 (centres unmarked) with kappa opiate receptor (Cavia porcellus, UniProt P41144).
Output: 79.117

Input: Kindly state the measured % Bound obtained for CSCCc1nc(C)n2c1NC(=O)C2C(C)C (racemic) with kappa opiate receptor (Cavia porcellus, UniProt P41144).
Output: 78.953

Input: Kindly state the measured % Bound obtained for CC(C)Cc1nc(C(C)C)c2n1C(C(C)C)C(=O)N2 (centres unmarked) with kappa opiate receptor (Cavia porcellus, UniProt P41144).
Output: 62.384

Input: Kindly state the measured % Bound obtained for CC(C)c1nc(Cc2cccc(C(F)(F)F)c2)n2c1NC(=O)C2C(C)C (racemic) with kappa opiate receptor (Cavia porcellus, UniProt P41144).
Output: 78.205

Input: Kindly state the measured % Bound obtained for CCCCC1C(=O)Nc2c(C(C)C)nc(C)n21 (centres unmarked) [Pool 11] with kappa opiate receptor (Cavia porcellus, UniProt P41144).
Output: 80.034

Input: Kindly state the measured % Bound obtained for CCCc1nc(C)n2c1NC(=O)C2C(C)C (racemic) [Pool 61] with kappa opiate receptor (Cavia porcellus, UniProt P41144).
Output: 50.845

Input: Kindly state the measured % Bound obtained for CC(C)c1nc(CCCc2ccccc2)n2c1NC(=O)C2C(C)C (racemic) with kappa opiate receptor (Cavia porcellus, UniProt P41144).
Output: 61.597

Input: Kindly state the measured % Bound obtained for CCC(C)C1C(=O)Nc2c(C(C)C)nc(C)n21 (centres unmarked) [Pool 5] with kappa opiate receptor (Cavia porcellus, UniProt P41144).
Output: 75.043

Input: Kindly state the measured % Bound obtained for CC(C)c1nc(CC2CC3CCC2C3)n2c1NC(=O)C2C(C)C (centres unmarked) with kappa opiate receptor (Cavia porcellus, UniProt P41144).
Output: 69.040

Input: Kindly state the measured % Bound obtained for Cc1nc(C)n2c1NC(=O)C2C(C)C (centres unmarked) [Pool 35] with kappa opiate receptor (Cavia porcellus, UniProt P41144).
Output: 77.693

Input: Kindly state the measured % Bound obtained for Cc1nc(CC(C)C)c2n1C(C(C)C)C(=O)N2 (centres unmarked) [Pool 37] with kappa opiate receptor (Cavia porcellus, UniProt P41144).
Output: 62.973

Input: Kindly state the measured % Bound obtained for Cc1nc(C(C)C)c2n1C(CC1CCCCC1)C(=O)N2 (centres unmarked) with kappa opiate receptor (Cavia porcellus, UniProt P41144).
Output: 88.277

Input: Kindly state the measured % Bound obtained for CC(C)c1nc(C2(c3ccccc3)CC2)n2c1NC(=O)C2C(C)C (racemic) with kappa opiate receptor (Cavia porcellus, UniProt P41144).
Output: 84.662

Input: Kindly state the measured % Bound obtained for CC(C)c1nc(CCC2CCCCC2)n2c1NC(=O)C2C(C)C (centres unmarked) with kappa opiate receptor (Cavia porcellus, UniProt P41144).
Output: 89.971

Input: Kindly state the measured % Bound obtained for CCC(C)c1nc(C)n2c1NC(=O)C2C(C)C (centres unmarked) [Pool 38] with kappa opiate receptor (Cavia porcellus, UniProt P41144).
Output: 68.639

Input: Kindly state the measured % Bound obtained for Cc1nc(CC2CCCCC2)c2n1C(C(C)C)C(=O)N2 (centres unmarked) [Pool 46] with kappa opiate receptor (Cavia porcellus, UniProt P41144).
Output: 121.815

Input: Kindly state the measured % Bound obtained for CC(C)CCc1nc(C(C)C)c2n1C(C(C)C)C(=O)N2 (centres unmarked) with kappa opiate receptor (Cavia porcellus, UniProt P41144).
Output: 66.178

Input: Kindly state the measured % Bound obtained for Cc1nc(CC2CCCCC2)c2n1C(C(C)C)C(=O)N2 (racemic) [Pool 62] with kappa opiate receptor (Cavia porcellus, UniProt P41144).
Output: 83.909

Input: Kindly state the measured % Bound obtained for CC(C)c1nc(C2CCC2)n2c1NC(=O)C2C(C)C (centres unmarked) with kappa opiate receptor (Cavia porcellus, UniProt P41144).
Output: 52.172

Input: Kindly state the measured % Bound obtained for Cc1nc(Cc2ccc(O)cc2)c2n1C(C(C)C)C(=O)N2 (centres unmarked) [Pool 48] with kappa opiate receptor (Cavia porcellus, UniProt P41144).
Output: 84.653

Input: Kindly state the measured % Bound obtained for Cc1nc(C(C)C)c2n1C(CC(C)C)C(=O)N2 (centres unmarked) [Pool 4] with kappa opiate receptor (Cavia porcellus, UniProt P41144).
Output: 95.420
